Tested on: XF 498 CNS
Assay: NCI tumour cell line growth inhibition, 48 h
Kindly state TGI for each of the entries shown.

Previously resolved entries follow.
compound | TGI
CCOC(=O)C(C)c1c(C(=O)c2ccc(C)nc2)c2ccccc2n1C (stereo not drawn) | > 100 µM
COc1cc2c(cc1OC)C1[C@@H](c3ccccc3)OCN1CC2 (stereo partly drawn) | > 100 µM

The compound listed as Cc1ccc(C(=O)O)cc1NC(=O)c1cc(/C=C/c2ccccc2)[nH]c(=S)n1 has a reported TGI of > 100 µM

* * *

Kindly state TGI for each of the entries shown.
Tested on: PC-3 prostate
Experiment: NCI tumour cell line growth inhibition, 48 h

Previously resolved entries follow.
compound | result
O=C1C(Cl)=C(Cl)C(=O)C2=C1C1c3ccccc3C2c2ccccc21 | > 100 µM
CCOC(=O)C1C(=O)C=C(c2cc(C)ccc2O)CC1c1cccc(Cl)c1 (stereo unspecified) | > 100 µM
NC(=S)N/N=C1\CCCCc2ccccc21 | > 10 µM

Hi, could you look up TGI for each item in my list?
1. [N-]=[N+]=NCCCn1c2c(c3cc4c(cc3c1=O)OCO4)C(=O)c1ccccc1-2
2. C1CSC(Sc2nc(SC3=NCCS3)nc(SC3=NCCS3)n2)=N1
3. c1ccc2c(c1)SC1=C(SC(=C3SC4=C(S3)Sc3ccccc3S4)S1)S2

> 100 µM
> 100 µM
> 100 µM

* * *

Tested on: SF-539 CNS
Assay: NCI tumour cell line growth inhibition, 48 h
recordedMetric: TGI

Previously resolved entries follow.
compound | TGI
Cc1nc2ccccn2c1N=Nc1ccc(C(=O)NN)cc1 | > 100 µM
CC1=C(O)C(=O)C(C2=C(O)C(=O)C(C)=C(O)C2=O)=C(O)C1=O | > 100 µM
C=CCN1CCN([C@H](c2ccc(C(=O)N(CC)CC)cc2)c2cccc(OC)c2)CC1 | > 25 µM
COc1cc2c(cc1OC)C1[C@@H](c3ccccc3)OCN1CC2 (stereo not given in full) | > 100 µM

Now take the following compound into account.
Simply: O=[N+]([O-])c1ccc2c(c1)Sc1ccccc1N2 , SF-539 CNS, TGI = > 100 µM

* * *

System: OVCAR-5 ovarian
Experiment: NCI tumour cell line growth inhibition, 48 h
Kindly state TGI for each of the entries shown.

molecule | TGI
COc1cc2c(cc1OC)C1[C@@H](c3ccccc3)OCN1CC2 (stereo not given in full) | > 100 µM

Hi, could you look up TGI for each item in my list?
1. CC(=O)Nc1ccc(S(=O)(=O)Nc2nc(-c3ccc(Cl)cc3)cc(N3N=C(c4ccc(Br)cc4)CC3c3ccccc3)n2)cc1 (stereo not given)
2. O=C(Nc1nc(-c2ccc(Cl)cc2)cs1)c1cc(-c2ccc(Br)cc2)nc2ccc(Cl)cc12
3. CC(C)(Cl)C(Br)CCC(C)(Br)C(Br)CBr (stereo not given)
4. CCN(CC)CCNc1ccc2nnn3c4ccc([N+](=O)[O-])cc4c(=O)c1c23

["27.8 µM", "> 100 µM", "31.2 µM", "65.1 µM"]

* * *

System: SK-OV-3 ovarian
Assay: NCI tumour cell line growth inhibition, 48 h; in the data active means GI50 below about 0.43 µM; inactive means the rest
Hello, when you answer, please use one of the following outcomes: active, inactive

The examples below pair each entry with its known result.
compound | className
CCO/C=N/C1=C(C#N)C(c2ccc(OC)cc2)c2sc3c(F)cccc3c2O1 (centres undefined) | inactive
COc1cc2ccnc(C=O)c2cc1OC | inactive
O=C(/C=C/c1ccc(Cl)cc1)c1ccc(Nc2nc(Nc3ccc(F)cc3)nc(Nc3ccc(F)cc3)n2)cc1 | inactive
COc1cc2c(cc1I)-c1c(cc(OC)c(OC)c1OC)CC[C@@H]2NC(C)=O | active
C#CCn1cnc2cnc(Nc3cccc(NC(=O)CCl)c3)nc21 | inactive

Could you please tell me the result logged for CC1(C)CN(c2cc(C(F)(F)F)cc3cncn23)CCC12NC(=O)NC2=O (centres undefined) in this assay?
inactive

Could you please tell me the result logged for CC(C)=CCC/C(C)=C/CC/C(C)=C/CC/C(C)=C/CSC[C@H](NC(=O)CCCCCN1CCN(C)CC1)C(=O)NC1CCCCC1 in this assay?
inactive

Could you please tell me the result logged for NC1CCCCC1N.Nc1c(N=Nc2ccc(-c3ccc(N=Nc4cc(S(=O)(=O)[O-])c5ccccc5c4N)cc3)cc2)cc(S(=O)(=O)[O-])c2ccccc12.[OH3+].[OH3+].[Pt+4] in this assay?
inactive

Could you please tell me the result logged for O=C(Nc1nc(-c2ccc(Cl)cc2)cs1)c1cc(-c2ccc(Br)cc2)nc2ccc(Cl)cc12 in this assay?
inactive

* * *

System: RPMI-8226 leukemia
Experiment: NCI tumour cell line growth inhibition, 48 h
recordedMetric: TGI

Previously resolved entries follow.
substanceSmiles | testedOn | result
NC(=S)N/N=C1\CCCCc2ccccc21 | RPMI-8226 leukemia | > 10 µM
CC1=NC(C)(C)[N+]([O-])=C1 | RPMI-8226 leukemia | > 10 µM

Now take the following compound into account.
The compound listed as Cc1ccc(C(=O)O)cc1NC(=O)c1cc(/C=C/c2ccccc2)[nH]c(=S)n1 has a reported TGI of > 69.7 µM

* * *

Tested on: MDA-MB-435
Assay: NCI tumour cell line growth inhibition, 48 h
recordedMetric: TGI

Previously resolved entries follow.
compound | TGI
O=c1c(Cc2c(O)ccc3ccccc23)nnc2sc(-c3nn4c(=O)c(Cc5c(O)ccc6ccccc56)nnc4s3)nn12 | > 100 µM
CC(=O)NS(=O)(=O)c1ccc(-n2nc(-c3ccc(Cl)cc3)cc2-c2cc(O)ccc2O)cc1 | > 100 µM
C/C(=C\COc1cc(O)c2c(c1)C(=O)c1cc(C)cc(O)c1C2=O)CCC1OC1(C)C (stereo not drawn) | > 100 µM
ClC(Cl)(Cl)C(N1CCN(c2ccccc2)CC1)N1CCN(c2ccccc2)CC1 | > 100 µM
C#CCn1cnc2cnc(Nc3cccc(NC(=O)CCl)c3)nc21 | > 62.5 µM

Hi, could you look up TGI for each item in my list?
1. CCn1cc(C(=O)O)c(=O)c2cc(F)c(N3CCN(CN4C(=O)/C(=N\c5ncc(Cc6cc(OC)c(OC)c(OC)c6)c(N)n5)c5cc(Cl)ccc54)CC3)cc21
2. Cc1ccc(-n2c(=O)c3nn4c(=O)n(-c5ccc(C)cc5)c(=O)c4nn3c2=O)cc1
3. NC(=S)N/N=C1\CCCCc2ccccc21

1. > 100 µM
2. > 100 µM
3. > 10 µM

* * *

System: SF-268 CNS
Test: NCI tumour cell line growth inhibition, 48 h
Kindly state TGI for each of the entries shown.

compound | TGI
COc1ccc2c(CCNC(C)=O)c(C(C)=O)[nH]c2c1 | > 100 µM

Hi, could you look up TGI for each item in my list?
1. O=C1C(Cl)=C(Cl)C(=O)C2=C1C1c3ccccc3C2c2ccccc21
2. O=C(c1nc2ccc(Cl)cc2[nH]c1=O)C(O)c1ccccc1 (stereo not drawn)
3. CCC(=O)/C=C/c1ccccc1

["> 100 µM", "> 100 µM", "> 100 µM"]

Hi, could you look up TGI for each item in my list?
1. O=[N+]([O-])c1ccc2c(c1)Sc1ccccc1N2
2. O=C(Nc1ccc(OCc2nnc(-c3ccc(Cl)cc3)o2)c(F)c1)c1ccc(Cl)c(C(F)(F)F)c1
3. Cn1ncc(NC(=O)c2nc(-c3c(F)cccc3F)sc2N)c1N1CC[C@@H](N)[C@H](F)CC1

1. > 100 µM
2. > 50 µM
3. 32.6 µM

The compound listed as CCC[CH2][Sn]1([CH2]CCC)[O]C(=O)c2cccc(C)c2[O]1 has a reported TGI of 1.46 µM

* * *

Kindly state TGI for each of the entries shown.
System: SNB-19 CNS
Assay: NCI tumour cell line growth inhibition, 48 h

compound | TGI
CS(=O)(=O)O[C@H]1C(=O)N(c2cc3c4ccccc4ccc3c3ccccc23)[C@@H]1c1ccccc1 | > 100 µM
CCOC(=O)C12CCCC1(O)N(NC(N)=O)C(C)=C2C(=O)OC (stereo not drawn) | > 100 µM

The compound listed as NC(=S)N/N=C1\CCCCc2ccccc21 has a reported TGI of > 10 µM

* * *

Kindly state TGI for each of the entries shown.
Test system: HOP-62 NSCLC
Assay: NCI tumour cell line growth inhibition, 48 h

Previously resolved entries follow.
compound | TGI
NC(=S)N/N=C1\CCCCc2ccccc21 | > 10 µM
Cc1ccc(S(=O)(=O)NC(=O)NC(C(=O)O)C(C)C)cc1 (stereo not drawn) | > 100 µM

Now take the following compound into account.
The compound listed as CN(C)c1cc[n+](/C(NS(=O)(=O)c2cc(C(=O)Nc3ccc(Cl)cc3)c(Cl)cc2[S-])=C(\C#N)C(=O)c2ccccc2)cc1 has a reported TGI of > 100 µM

* * *

Tested on: SF-295 CNS
Test: NCI tumour cell line growth inhibition, 48 h
recordedMetric: TGI (µM)
Answers are plain numbers, in µM.

compound | testedOn | recordedNumber
CCCCCCCCOCC(CO)OCCCCCCCC (centres undefined) | SF-295 CNS | 30.5

The compound listed as C=C1C(=O)O[C@H]2[C@H]1CC/C(COC(=O)/C=C/C(=O)NCc1ccc(Cn3c(=O)sn(-c4ccccc4)c3=O)cc1)=C\CC[C@@]1(C)O[C@@H]21 has a reported TGI of 32.7
